The origin of these recorded values is ChEMBL document CHEMBL1158392.

Tested on: Candida parapsilosis
Assay: Antifungal activity against Candida parapsilosis ATCC 22019 upto 100 ug/mL after 24 hrs by AFST-EUCAST method
Type: functional, organism-based
Activity calls are given as the source filed them. No cut-off for these calls is given here.
OBSERVED_PROPERTY: MIC

These solved cases illustrate the format of a correct answer.
CC(C)=C1CCC2=C(CC[C@H]3[C@](C)(CO)CCC[C@]23C)C1 ... inactive
CC(C)=C1CCC2=C(CC[C@H]3[C@](C)(C=O)CCC[C@]23C)C1 ... inactive
COC(=O)[C@]1(C)CCC[C@]2(C)C3=C(CC[C@@H]12)CC(=C(C)C)CC3 ... inactive
CC(C)C1=CC2=CC[C@@H]3[C@](C)(CCC[C@@]3(C)C=O)[C@H]2CC1 ... inactive
CC(C)C1=CC2=CC[C@@H]3[C@](C)(CCC[C@@]3(C)C(=O)O)[C@H]2CC1 ... inactive

Give recorded MIC. COC(=O)[C@]1(C)CCC[C@@]2(C)[C@H]1CC=C1C=C(C(C)C)CC[C@@H]12 [METHYL ABIETATE]
inactive

Look up MIC of `CC(C)C1=CC2=CC[C@H]3[C@](C)(CO)CCC[C@]3(C)[C@H]2CC1` and report it.
inactive

Specify reported MIC for the compound shown: `CC(C)=C1CCC2=C(CC[C@H]3[C@](C)(C(=O)O)CCC[C@]23C)C1`
inactive
